# system-under-test: Fatty acid synthase (Homo sapiens, UniProt P49327)
# Sequence (P49327 whole entry, the tested form may be a part): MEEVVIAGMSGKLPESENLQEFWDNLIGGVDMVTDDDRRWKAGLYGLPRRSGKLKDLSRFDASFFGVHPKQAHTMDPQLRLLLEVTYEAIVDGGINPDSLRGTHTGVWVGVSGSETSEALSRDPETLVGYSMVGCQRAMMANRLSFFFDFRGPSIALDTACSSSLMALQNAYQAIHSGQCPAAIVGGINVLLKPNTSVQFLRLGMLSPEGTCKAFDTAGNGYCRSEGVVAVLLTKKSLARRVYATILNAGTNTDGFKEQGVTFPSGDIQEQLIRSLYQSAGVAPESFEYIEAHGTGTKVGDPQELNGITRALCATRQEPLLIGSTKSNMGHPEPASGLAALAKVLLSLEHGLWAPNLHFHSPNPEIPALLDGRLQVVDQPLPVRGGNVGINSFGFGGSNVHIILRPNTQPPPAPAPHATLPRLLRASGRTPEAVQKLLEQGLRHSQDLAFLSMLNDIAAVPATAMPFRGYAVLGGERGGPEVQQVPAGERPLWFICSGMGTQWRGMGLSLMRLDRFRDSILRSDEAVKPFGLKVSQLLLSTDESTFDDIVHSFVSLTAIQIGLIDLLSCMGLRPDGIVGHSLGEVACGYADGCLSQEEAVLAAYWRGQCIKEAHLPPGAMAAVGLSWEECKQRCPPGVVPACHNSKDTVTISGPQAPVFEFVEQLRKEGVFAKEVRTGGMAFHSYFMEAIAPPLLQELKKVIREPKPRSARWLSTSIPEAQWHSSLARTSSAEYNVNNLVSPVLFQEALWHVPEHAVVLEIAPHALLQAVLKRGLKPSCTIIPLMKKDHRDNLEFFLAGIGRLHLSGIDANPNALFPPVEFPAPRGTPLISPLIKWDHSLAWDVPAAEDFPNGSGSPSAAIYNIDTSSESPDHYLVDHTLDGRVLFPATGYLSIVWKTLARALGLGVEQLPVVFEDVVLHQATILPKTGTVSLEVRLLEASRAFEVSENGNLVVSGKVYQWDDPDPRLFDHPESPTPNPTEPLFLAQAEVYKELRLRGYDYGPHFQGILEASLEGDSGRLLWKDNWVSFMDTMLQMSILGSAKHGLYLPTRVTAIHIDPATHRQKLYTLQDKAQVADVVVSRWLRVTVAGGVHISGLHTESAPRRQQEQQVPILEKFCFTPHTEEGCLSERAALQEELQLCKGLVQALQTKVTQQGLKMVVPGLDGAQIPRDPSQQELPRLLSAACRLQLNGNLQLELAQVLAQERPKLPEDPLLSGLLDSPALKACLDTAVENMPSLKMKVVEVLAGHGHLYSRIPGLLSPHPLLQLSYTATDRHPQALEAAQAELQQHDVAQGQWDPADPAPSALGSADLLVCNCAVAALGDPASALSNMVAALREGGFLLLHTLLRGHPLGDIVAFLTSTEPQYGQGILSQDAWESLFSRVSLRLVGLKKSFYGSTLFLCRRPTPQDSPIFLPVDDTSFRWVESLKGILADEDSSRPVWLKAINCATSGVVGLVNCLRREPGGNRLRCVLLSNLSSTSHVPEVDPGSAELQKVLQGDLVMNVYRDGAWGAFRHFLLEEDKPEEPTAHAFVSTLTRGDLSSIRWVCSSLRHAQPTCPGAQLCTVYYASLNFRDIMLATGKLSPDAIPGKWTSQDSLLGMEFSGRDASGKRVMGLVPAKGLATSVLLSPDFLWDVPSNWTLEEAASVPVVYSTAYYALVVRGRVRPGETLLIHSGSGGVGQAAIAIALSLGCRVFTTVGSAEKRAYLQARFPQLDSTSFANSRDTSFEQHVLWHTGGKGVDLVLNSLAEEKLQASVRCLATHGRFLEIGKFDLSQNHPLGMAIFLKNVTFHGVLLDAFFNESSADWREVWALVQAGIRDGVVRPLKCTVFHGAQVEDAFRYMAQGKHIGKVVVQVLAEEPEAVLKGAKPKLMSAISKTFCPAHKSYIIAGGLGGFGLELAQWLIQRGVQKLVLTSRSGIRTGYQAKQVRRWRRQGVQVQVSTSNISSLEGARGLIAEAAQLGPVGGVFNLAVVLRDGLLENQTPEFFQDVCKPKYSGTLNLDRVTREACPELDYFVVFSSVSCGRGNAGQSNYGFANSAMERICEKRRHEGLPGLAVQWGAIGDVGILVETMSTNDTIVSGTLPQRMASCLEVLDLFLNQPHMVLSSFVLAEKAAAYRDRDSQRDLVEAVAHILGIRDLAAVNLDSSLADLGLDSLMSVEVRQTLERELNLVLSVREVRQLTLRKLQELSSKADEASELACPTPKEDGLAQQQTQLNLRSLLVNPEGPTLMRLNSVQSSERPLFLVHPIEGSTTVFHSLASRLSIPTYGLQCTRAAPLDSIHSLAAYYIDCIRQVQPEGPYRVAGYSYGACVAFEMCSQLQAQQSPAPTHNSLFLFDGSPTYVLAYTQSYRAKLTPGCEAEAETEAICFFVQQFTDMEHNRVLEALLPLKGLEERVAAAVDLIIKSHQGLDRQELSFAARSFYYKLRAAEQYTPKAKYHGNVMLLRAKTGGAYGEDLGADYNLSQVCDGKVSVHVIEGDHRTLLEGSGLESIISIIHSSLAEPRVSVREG
# experiment: FAS thioesterase domain inhibitors, dose response, biochemical, kinetic fluorescence intensity (AID 624326);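 also: rate of fluorescence rise from hydrolysis of a fluorogenic O-methyl fluorescein ester substrate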
# Assay type: functional
Activity calls are given as the source filed them.
Listed next: entries and their corresponding IC50.

molecule | system-under-test | IC50
O=C1C2ON(c3ccccc3)C(c3cccnc3)C2C(=O)N1c1ccc(Cl)c(Cl)c1 (stereo unspecified) | Fatty acid synthase (Homo sapiens, UniProt P49327) | 8.26 µM (active)
CC(C)(C)OC(=O)NCCc1nnc(S(=O)(=O)Cc2ccc(Cl)cc2Cl)o1 | Fatty acid synthase (Homo sapiens, UniProt P49327) | 6.42 µM (active)
O=C(N/N=C/c1cc([N+](=O)[O-])cc([N+](=O)[O-])c1O)/C(=C\c1cccs1)NC(=O)c1ccccc1 | Fatty acid synthase (Homo sapiens, UniProt P49327) | 4.89 µM (active)
CN(C(=O)COC(=O)c1cc([N+](=O)[O-])ccc1Cl)c1ccccc1 | Fatty acid synthase (Homo sapiens, UniProt P49327) | 7 µM (active)
O=C(CN1C(=O)c2ccc([N+](=O)[O-])cc2C1=O)NCCC1=CCCCC1 | Fatty acid synthase (Homo sapiens, UniProt P49327) | 15.4 µM (active)
O=C(CCNC(=O)c1ccc([N+](=O)[O-])cc1)NCCC1=CCCCC1 | Fatty acid synthase (Homo sapiens, UniProt P49327) | 3.4 µM (active)
C=C1CC(COc2ccc3c(C)c(Cl)c(=O)oc3c2)(c2ccccc2)OC1=O (stereo unspecified) | Fatty acid synthase (Homo sapiens, UniProt P49327) | 12 µM (active)
COC(=O)N1C(=O)[C@](c2ccccc2)(C2CCCC2)N1C(=O)OC | Fatty acid synthase (Homo sapiens, UniProt P49327) | 0.715 µM (active)
COC(=O)c1cc(C(=O)OCC(=O)NC2CCCCCCC2)cc([N+](=O)[O-])c1 | Fatty acid synthase (Homo sapiens, UniProt P49327) | 8 µM (active)
O=C(NCc1ccc2c(c1)OCO2)c1ccc2c(c1)N(Cc1c(F)cccc1Cl)C(=O)CS2 | Fatty acid synthase (Homo sapiens, UniProt P49327) | 6.15 µM (active)
O=C(/C=C/c1cc([N+](=O)[O-])ccc1OC(F)F)NCc1ccc(F)cc1 | Fatty acid synthase (Homo sapiens, UniProt P49327) | 0.999 µM (active)

###

# experiment: cytotoxicity toward NIH3T3 fibroblasts, dose response, counter-screen, cell-based, ATP luminescence, mouse fibroblasts (AID 2010);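 also: cells exposed to compound for about 90 hours before reading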
# Format: functional
Calls of active or inactive are those of the source.
assay-readout: EC50

compound | value
COc1ccc(C2CC(c3ccccc3)=NN2c2ccc(S(N)(=O)=O)cc2)cc1 (stereo unspecified) | > 60 µM (inconclusive)
CCN1CCN(c2ccc(S(=O)(=O)N3CCCCC3)cc2NC(=O)c2ccc([N+](=O)[O-])s2)CC1 | 6.56 µM (active)
CC(C)CCOC(=O)C[N+](C)(C)CCOC1CC2CCC1(C)C2(C)C (stereo unspecified) | > 60 µM (not active)
CSc1ccc(NC(=O)Nc2cccn(Cc3ccccc3F)c2=O)cc1 | > 60 µM (not active)
COc1ccc(Br)cc1C(=O)Nc1ccc(Cc2ccncc2)cc1 | > 60 µM (not active)
O=C(N/N=C/c1ccc([N+](=O)[O-])s1)c1ccncc1 | > 60 µM (not active)
CC(=O)Cn1ncc(Br)c(Br)c1=O | 0.976 µM (active)
Cc1ccc(NC(=O)C2CCCN(C(=O)c3ccc(Cl)cc3)C2)cc1S(=O)(=O)N1CCOCC1 (stereo unspecified) | > 60 µM (not active)
COc1cccc(OCCCn2cc(/C=C3/C(=N)N4C=C(C)SC4=NC3=O)c3ccccc32)c1 | > 60 µM (not active)
COc1ccc(C2CC(c3cccs3)=NN2C(=O)CCl)cc1OC (stereo unspecified) | 2.64 µM (active)
CC1CCC(C(C)C)C(OC(=O)COC(=O)c2cc(O)ccc2N)C1 (stereo unspecified) | > 60 µM (not active)
